Sourced from patent US20140031434A1

# TEST NAME: in vivo
# TEST CONDITIONS: both, KM, mouse, in vivo, ip, LD50 95% confidence interval lower limit, mice, intraperitoneal acute toxicity, Bliss method
ENDPOINT LABEL: LD50 at 14 days (mg/kg)
Please reply with the bare figure in mg/kg and do not write the unit itself.

Query (compound): C[C@H]1CC[C@@]2(O)C(C)(C)[C@@H]3CC[C@@]2(C)[C@H]1C3 ; field requested: LD50 at 14 days
2660

---

# TEST NAME: in vivo
# TEST CONDITIONS: both, KM, mouse, in vivo, po, LD50, mice, orogastric gavage, peanut oil solution, Bliss method
ENDPOINT LABEL: LD50 at 14 days (mg/kg)
Please reply with the bare figure in mg/kg and do not write the unit itself.

Query (compound): C[C@H]1CC[C@@]2(O)C(C)(C)[C@@H]3CC[C@@]2(C)[C@H]1C3 [Patchouli Alcohol] ; field requested: LD50 at 14 days
4690
